Catalogue of SPOT intensity readings, one per entry.
- measurement.target: T1, Nbp2, Q12163
- T1 sequence (Q12163 103-180, looked up): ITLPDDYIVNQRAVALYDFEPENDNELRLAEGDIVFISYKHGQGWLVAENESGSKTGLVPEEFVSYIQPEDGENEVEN
- protocol: SPOT array
- conditions: median of control spots 357
// no unit, no text: just the number

{"binder": "RLSFFFPLDPAYIRN", "SPOT intensity": 21}

Please give measured SPOT intensity of the following entry: FLIKFTPKFPQSIDH
418

State its SPOT intensity: NGRRRPKFRVQLSGN
63

Answer with the recorded SPOT intensity for the binder listed here: HHNRRKPLEVYFKAT
0

Answer with reported SPOT intensity of NIKVLLNPKLGKPVK
2

Item LLRRTIPKRPFYHVL : provide SPOT intensity
100

Please look at this binder and report its SPOT intensity: WRPRIVPILPYITRL
1

Data provenance is paper PMC2756588.
